Hello, the source for this data is patent US20230242624A1, in case you need it.

# target or test system: T1, MERS-CoV Spike protein fragment (RBD, aa 367-606, His tag) (MERS-CoV, UniProt K9N5Q8 367-606)
# T1 sequence: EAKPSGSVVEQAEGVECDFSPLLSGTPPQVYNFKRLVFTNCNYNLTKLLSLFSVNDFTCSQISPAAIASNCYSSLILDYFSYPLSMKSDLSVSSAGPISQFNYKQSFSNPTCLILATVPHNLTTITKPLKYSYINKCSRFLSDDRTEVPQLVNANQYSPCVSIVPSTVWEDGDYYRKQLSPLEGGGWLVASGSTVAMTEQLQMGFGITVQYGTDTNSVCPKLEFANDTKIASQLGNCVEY
# experimental protocol: iQue flow cytometry, antigen-coated beads
quantity measured: EC50 (µM)
The response must be a number in µM with no trailing unit.

NI-607.426_F11 (antibody, V domains shown) VH: QVQLVESGGGLVQPGGSLRLSCAASGFTFSSYWMSWVRQAPGKGLEWVANIKQDGSEKYYVDSVKGRFTISRDNAKNSLYLQMNSLRAEDTAVYYCARGLVGQWLGVDYWGQGTLVTVSS VL: QSVLTQPHSVSESPGKTVTISCTGSSGSIASNYVQWYQQRPGSAPTTVIYEDNQRPSGVPDRFSGSIDSSSNSASLTISGLKTEDEADYYCQSYDSSNWVFGGGTKLTVL: 1

INPUT: EC50 lookup needed for NI-607.274_E5 (antibody, V domains shown) VH: EVQLVESGGGMVQPGRSLRLSCAGSGFTFSTHGMHWVRQAPGKGLEWITGITYDGSDEFYADSVKGRFTIARDNSKNMLYLQMNSLRAEDTAVYFCAKDLEWLTNYVDHWGQGTLVTVSS VL: DIVMTQSPGTLSVSPGERATLSCRASQSVNYNLAWYQQKPGQAPRLLIFDASTRATGIPARFTGSGSGTEFTLTISSLQSEDFAVYYCQQSNAWLTFGGGTKLEIK , thanks.
OUTPUT: 0.9
